SYSTEM: [V390I/Y410E/E274V]-CfEcR (Choristoneura fumiferana, UniProt O77240)
Construct: assay construct b835
Format: cell-based
MEASUREMENT SETUP: rac, 3T3 Cells, read-out: EC50
MEASURE NAME: pEC50
To interpret pEC50, take it as minus log10 of a concentration measured in moles per litre.

CCCC(N(NC(=O)c1cccc(C)c1)C(=O)c1cc(C)cc(C)c1)C(C)(C)C (racemic); 7.79
CCCC(N(NC(=O)c1cccc(OC)c1C)C(=O)c1cc(C)cc(C)c1)C(C)(C)C (racemic); 9.82

Form field: reported pEC50 of CCCC(N(NC(=O)c1cccs1)C(=O)c1cc(C)cc(C)c1)C(C)(C)C (racemic)
6.76

----------
SYSTEM: wild-type Choristoneura fumiferana EcR (D, E and F domains) (Choristoneura fumiferana)
Assay type: cell-based
MEASUREMENT SETUP: rac; WT-CtEcR, 3T3 Cells; read-out: EC50
Experimental: Cellular gene switch assays were performed by transiently transfecting the following constructs in mouse embryonic fibroblast cells (NIH3T3). […] NIH3T3 cells were maintained at 37′C and 5% CO2 in Dulbecco's modified Eagle's medium (DMEM) supplemented with 10% bovine calf serum, both obtained from Mediatech Inc., Manassas, Va. […] EC50 values were measured minimally in duplicate. […]
// reported EC50 per item
Give a bare numeral; the unit nM is implied.

Worked cases, EC50 given:
CCCC(N(NC(=O)c1ccc2c(c1C)OCCO2)C(=O)c1cc(C)cc(C)c1)C(C)(C)C (racemic); 1.32
CCCC(N(NC(=O)c1c(Cl)cccc1Cl)C(=O)c1cc(C)cc(C)c1)C(C)(C)C (racemic); 100
CCCC(N(NC(=O)c1cc(C)oc1C)C(=O)c1cc(C)cc(C)c1)C(C)(C)C (racemic); 2140
CCCC(N(NC(=O)c1cccc(OC)c1C)C(=O)c1cc(C)cc(C)c1)C(C)(C)C (racemic); 3.88
CCCC(N(NC(=O)c1c(F)cccc1F)C(=O)c1cc(C)cc(C)c1)C(C)(C)C (racemic); 94

Form field: reported EC50 of CCCC(N(NC(=O)c1ccccc1Cl)C(=O)c1cc(C)cc(C)c1)C(C)(C)C (racemic)
59

Form field: reported EC50 of CCCC(N(NC(=O)c1cc(F)cc(F)c1)C(=O)c1cc(C)cc(C)c1)C(C)(C)C (racemic)
30.5

Form field: reported EC50 of CCCC(N(NC(=O)c1cccc(OC)c1C)C(=O)c1cc(OC)c(C)c(OC)c1)C(C)(C)C (racemic)
80.2

Form field: reported EC50 of CCCC(N(NC(=O)c1cccs1)C(=O)c1cc(C)cc(C)c1)C(C)(C)C (racemic)
3160

Form field: reported EC50 of CCCC(N(NC(=O)c1ccc(Cl)nc1)C(=O)c1cc(C)cc(C)c1)C(C)(C)C (racemic)
470

----------
SYSTEM: [V390I/Y410E/E274V]-CfEcR (Choristoneura fumiferana)
Construct: assay construct b835
Type: cell-based
MEASUREMENT SETUP: R, 3T3 Cells, relative to GS-E ligand
// label = True if RMFI (relative maximum fold induction) is not less than 0.8, otherwise False

Previously resolved entries follow.
CCC[C@@H](N(NC(=O)c1c(Cl)cccc1Cl)C(=O)c1cc(C)cc(C)c1)C(C)(C)C; True
CCC[C@@H](N(NC(=O)c1ccccc1F)C(=O)c1cc(C)cc(C)c1)C(C)(C)C; True
CCC[C@@H](N(NC(=O)c1ccc2c(c1CC)OCCO2)C(=O)c1cc(C)cc(C)c1)C(C)(C)C; False

Identify whether the reported RMFI (relative maximum fold induction) of the following compound is 0.8 or greater: CCC[C@@H](N(NC(=O)c1ccccc1C)C(=O)c1cc(C)cc(C)c1)C(C)(C)C
False

Identify whether the reported RMFI (relative maximum fold induction) of the following compound is 0.8 or greater: CCC[C@@H](N(NC(=O)c1ccc(OC)cc1)C(=O)c1cc(C)cc(C)c1)C(C)(C)C
False

Identify whether the reported RMFI (relative maximum fold induction) of the following compound is 0.8 or greater: CCC[C@@H](N(NC(=O)c1cccs1)C(=O)c1cc(C)cc(C)c1)C(C)(C)C
False

Identify whether the reported RMFI (relative maximum fold induction) of the following compound is 0.8 or greater: CCC[C@H](C1CCCCC1)N(NC(=O)c1cccc(OC)c1)C(=O)c1cc(C)cc(C)c1
False
